These data points were gathered from patent US20260234242A1.

Quick reference: pEC50 of the listed items.
Molecular target: T1, human CDH6 on tumor cells (OVCAR3 cells, PA-1 cells) (human, UniProt P55285 54-790)
T1 sequence: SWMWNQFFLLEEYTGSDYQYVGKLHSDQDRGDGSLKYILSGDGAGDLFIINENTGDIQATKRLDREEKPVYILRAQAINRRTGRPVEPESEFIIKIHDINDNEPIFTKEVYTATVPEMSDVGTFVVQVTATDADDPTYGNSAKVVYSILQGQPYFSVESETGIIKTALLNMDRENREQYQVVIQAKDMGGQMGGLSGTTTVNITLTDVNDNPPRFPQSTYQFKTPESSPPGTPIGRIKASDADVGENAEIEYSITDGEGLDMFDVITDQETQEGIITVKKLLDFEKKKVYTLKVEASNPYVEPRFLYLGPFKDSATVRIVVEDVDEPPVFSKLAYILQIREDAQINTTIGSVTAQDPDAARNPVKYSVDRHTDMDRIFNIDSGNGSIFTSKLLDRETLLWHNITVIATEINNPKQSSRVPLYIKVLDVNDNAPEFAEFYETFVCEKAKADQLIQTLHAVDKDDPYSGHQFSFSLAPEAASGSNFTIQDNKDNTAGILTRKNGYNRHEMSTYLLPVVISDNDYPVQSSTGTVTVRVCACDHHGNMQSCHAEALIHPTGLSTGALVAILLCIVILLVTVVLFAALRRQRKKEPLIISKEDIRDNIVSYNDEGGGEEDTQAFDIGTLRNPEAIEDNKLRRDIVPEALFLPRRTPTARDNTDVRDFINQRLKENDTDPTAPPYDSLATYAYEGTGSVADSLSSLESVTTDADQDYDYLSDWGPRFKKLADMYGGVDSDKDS
Assay: FACS, OVCAR3 cells
Field pEC50 (float): negative decimal logarithm of the concentration in molar.

binder	pEC50
CHI-CDH6-6 (antibody, human IgG1, kappa, V domains shown, also called CHI-hCDH6-6; chimeric antibody of murine CDH6-6) VH: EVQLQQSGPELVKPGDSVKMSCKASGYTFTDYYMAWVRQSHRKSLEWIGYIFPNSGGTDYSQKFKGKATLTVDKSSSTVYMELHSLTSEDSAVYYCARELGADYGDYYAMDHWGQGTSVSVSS VL: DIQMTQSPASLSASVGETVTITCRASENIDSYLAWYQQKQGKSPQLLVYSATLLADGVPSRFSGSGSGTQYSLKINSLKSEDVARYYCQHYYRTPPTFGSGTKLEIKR	9.17

Please look at the following binder next.
stdin: I would be grateful if you could share the reported pEC50 for hCDH6-6-H1L5 (antibody, V domains shown, Humanized) VH: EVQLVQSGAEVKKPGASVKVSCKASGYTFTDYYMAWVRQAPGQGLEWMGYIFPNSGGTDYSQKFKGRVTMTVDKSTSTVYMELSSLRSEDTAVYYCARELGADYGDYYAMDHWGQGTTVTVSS VL: DIVMTQSPLSLPVTPGEPASISCRASENIDSYLAWYLQKPGKSPQLLVYSATLLADGVPDRFSGSGSGTDFTLKISRVEAEDVGVYYCQHYYRTPPTFGQGTKLEIK .
stdout: 9.21
